# tested_on: UniProt O95977
# Sequence (O95977 1-384): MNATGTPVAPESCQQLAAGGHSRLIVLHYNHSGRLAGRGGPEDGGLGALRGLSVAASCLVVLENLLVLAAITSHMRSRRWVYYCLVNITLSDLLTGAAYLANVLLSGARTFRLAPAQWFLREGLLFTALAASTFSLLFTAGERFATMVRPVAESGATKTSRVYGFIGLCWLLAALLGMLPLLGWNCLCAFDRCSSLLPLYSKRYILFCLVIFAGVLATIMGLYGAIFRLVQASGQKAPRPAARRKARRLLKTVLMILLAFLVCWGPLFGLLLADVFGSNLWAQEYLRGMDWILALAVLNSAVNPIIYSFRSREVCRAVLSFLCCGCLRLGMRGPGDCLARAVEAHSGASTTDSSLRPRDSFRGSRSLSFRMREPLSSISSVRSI
# test_name: Tango S1P4-BLA U2OS beta-arrestin/beta-lactamase reporter agonist assay
# Format: cell-based
# stated_conditions: S1P4-R EC50 ratio vs hit 2
metric: fold decrease in potency compared to the hit 2 (fold)

P: Cc1ccc(OCCOc2ccc(Cl)cc2Cl)c([N+](=O)[O-])c1 [22c]
Q: O=[N+]([O-])c1nc(Cl)ccc1OCCOc1ccc(Cl)cc1Cl [22d]
Problem: Endpoint returns whichever of P and Q has the numerically higher fold decrease in potency compared to the hit 2. Select an item and report its label.
Result: P

====

# tested_on: S1P4-R (human Endothelial Differentiation Gene 6; EDG6) (Homo sapiens, UniProt O95977)
# Sequence (O95977 1-384): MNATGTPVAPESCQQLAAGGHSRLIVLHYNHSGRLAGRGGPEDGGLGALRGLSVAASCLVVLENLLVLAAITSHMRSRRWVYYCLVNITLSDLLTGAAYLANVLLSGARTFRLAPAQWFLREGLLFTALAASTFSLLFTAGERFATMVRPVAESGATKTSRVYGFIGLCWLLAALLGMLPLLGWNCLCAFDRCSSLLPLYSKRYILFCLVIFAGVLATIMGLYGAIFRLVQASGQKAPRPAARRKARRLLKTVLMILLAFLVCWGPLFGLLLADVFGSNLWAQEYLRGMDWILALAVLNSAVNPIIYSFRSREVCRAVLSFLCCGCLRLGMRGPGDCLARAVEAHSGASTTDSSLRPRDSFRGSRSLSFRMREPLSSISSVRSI
# test_name: Tango S1P4-BLA U2OS beta-arrestin/beta-lactamase reporter agonist assay
# Assay type: cell-based
# stated_conditions: S1P4-R EC50 ratio vs hit 2
metric: fold decrease in potency compared to the hit 2 (fold)

Cc1ccc(OCCOc2cc(Cl)cc([N+](=O)[O-])c2)c([N+](=O)[O-])n1 [8q] | 22

A: O=[N+]([O-])c1ncccc1OCCOc1ccc(Cl)cc1Cl [22a]
B: Cc1ccc(OCCOc2c(Cl)cc(Cl)cc2Cl)c([N+](=O)[O-])n1 [8s]
Problem: Endpoint returns whichever of A and B has the numerically higher fold decrease in potency compared to the hit 2. Select an item and report its label.
Result: A
(A: 18 fold, B: 3 fold)
